test system: MS2 coat protein; assay: apparent KD of MS2 coat protein; designed switch direction (-1 OFF switch, 1 ON switch): -1; higher = weaker reporter binding; settings: input ligand: none
Where apparent KD of MS2 coat protein equals or exceeds 40 nM, the correct label is 1.0; where it does not, the label is 0.0.

Solved entries:
[[record]]
query_sequence = "CAGUACUGAGGAUAUACAUGAGGAUCACCCAUGUGGUUUAGUGCACGCGUACGUGUACGUAGAAGGCAGUACUG [JL 3.27 m8] (Eterna round: R97, puzzle: Exclusion 3)"
class = 0.0

[[record]]
query_sequence = "UUUUUAUAUGAAGGAUAUACUUAACAUGAGGAUCACCCAUGUGGUGUUGUGAGUGAGUGAGUUUAGUAGAAGGUCAAUUAUUGU [JMF's solution 16] (Eterna round: R96, puzzle: Exclusion NG 2)"
class = 1.0

[[record]]
query_sequence = "UGACGUCAUGUCAGGAUAUAGGCGAUGCGUGUCUUCUAGAAGGGACAUGAGGAUCACCCAUGUAAACUUUUGGU [Eternabot (L1) Solution 56] (Eterna round: R97, puzzle: Brourd's mod of Exclusion 4)"
class = 1.0

[[record]]
query_sequence = "GGUGGGCUAGGAUAUGCUUUGGGAGGGCAUUCCUUCGAUAAACUUGAGGAUCACCCAAGUAGAAGGAGCUUGCC [salish99_ex2_r4_022] (Eterna round: R97, puzzle: Exclusion 2)"
class = 0.0

[[record]]
query_sequence = "CUGCUCCGUGUAGGAUAUGCAUACUCCCACUAUGCAGAAGGACAUGAGGAUCACCCAUGUAUGUUAUUAUCACGUGUAGCGUCC [Design 17] (Eterna round: R96, puzzle: Exclusion NG 1)"
class = 0.0

[[record]]
query_sequence = "AAACUCUAAGUCAGGAUAUGGCAACGCUAAGGCGACCAGAAGGGACUUGAGGAUCACCCAAGUACCGCUUGUGG [Orardi] (Eterna round: R97, puzzle: Brourd's mod of Exclusion 4)"
class = 1.0

[[record]]
query_sequence = "UUCAUGUAAGGAUAUACCUCGAGCUGAUGAGAGUCUCAAAUGUAGAAGGUACAUGAGGAUCACCCAUGUACAGG [Eternabot (Original) Solution 5] (Eterna round: R97, puzzle: Exclusion 4)"
class = 1.0

[[record]]
query_sequence = "ACAUCACAGCUAGGAUAUAUAUGACAUGAGGAUCACCCAUGUUGUCCCAUGUUGACGAAAACCGAAUAGAAGGAGCCACAGAUG [Ex NG2 #3] (Eterna round: R96, puzzle: Exclusion NG 2)"
class = 1.0


Attention now shifts to the item below.
Query: Could you please find out whether UGUUGUUACGCAGGAUAUGUAUGAGGAUCACCCAUAAAACACACACUCCCAUGAGGAUCACCCAUGUAGAAGGGCGGGUUAACA [pwkr exNG2 2xF5 1xFMN.8] (Eterna round: R96, puzzle: Exclusion NG 2) has apparent KD of MS2 coat protein that meets 40 nM or exceeds it?
Response: 1.0

---

system: MS2 coat protein; experiment: apparent KD of MS2 coat protein; designed switch direction (-1 OFF switch, 1 ON switch): -1; higher = weaker reporter binding; details: Eterna round: R95; input ligand: microRNA oligo, concentration not stated
measurement type: apparent KD of MS2 coat protein (nM)
Numbers only, in nM.

Need apparent KD of MS2 coat protein for each of these sequences.
1. CCGGAAAUAGAGGAUAUAGGAGUCGAUAGACUCCUAGAAGGCUAUACAUGAGGAUCACCCAUGUGUCCUACCGG [Fiskers Ex 6 - 65] (puzzle: Exclusion 6)
2. CGAUGUUAUGUCAGGAUAUGCAUUGCGAAAGCGAUGCAGAAGGGACAUGAGGAUCACCCAUGUCCUAACCAUCG [Omei A 6] (puzzle: Brourd's mod of Exclusion 4)
3. CAGGUGUUAGGAUAUCGGAGAUCGAGGCCGACGGGAAAAGCCGAGAAGGAACAUGAGGAUCACCCAUGUAGGUG [JR_Exclu4_Sub035] (puzzle: Exclusion 4)
4. UGUACGAUGCGUGCUGACAUGCGUCGUGCAGCAGGUGGAACAUGAGGAUCACCCAUGUCCUCAUUUGCUCGUCUUAU [Mat - Sensor v3 - Turn-off var 2 - D21] (puzzle: Sensor v3, turn-off variant 2)
5. GUCAUGUUAGGAUAUCAAACAUGUGACUUCGGUCACUGUCCUGAGAAGGAACAUGAGGAUCACCCAUGUUGGAC [Ex4-3: 57] (puzzle: Exclusion 4)
6. CUAGCUUCGGCUAGUACAAGCUUUUUGCUCGUCUUAUUAACAUGAGGAUCACCCAUGUACAAGAGACCUCAUGUAUU [Sensor v3 - turn-off variant 2 - 10] (puzzle: Sensor v3, turn-off variant 2)

Response:
1. 16.6
2. 11.6
3. 235
4. 155
5. 16.2
6. 14.6

Hi, could you look up apparent KD of MS2 coat protein for each item in my list?
1. GGUGCGUUUGUGAGGAUAUGCUGGUCCUUGGUUCGGCAGAAGGCACAUGAGGAUCACCCAUGUGGUGUCGUCCC [salish99_Bmod_Ex4_046] (puzzle: Brourd's mod of Exclusion 4)
2. CAUACAGUAGUUAGGAUAUUGCAACGUACACGGAACGAGAAGGGACAUGAGGAUCACCCAUGUAGAUUGUAAAG [EX-4 Malc #8] (puzzle: Brourd's mod of Exclusion 4)
3. UAUUCUAGAUAGGAUAUACUUUUUUUUUUUUUCGUAGAAGGAUCUACAUGAGGAUCACCCAUGUUAACAGCAGU [JR_E6_Sub010] (puzzle: Exclusion 6)
4. UUAAUGUGAGGAUAUCAGGUGUGCUAGAGAACUGGUACAUCUGAGAAGGCACAUGAGGAUCACCCAUGUUCUUC [Mat - Exclusion 4 - Mod of JL - D55] (puzzle: Exclusion 4)

Response:
32
20
51.6
36.8
